Answer each item with its documented LD10.
Test system: Mus musculus
PROTOCOL_DESCRIPTION: Toxicity in ip dosed BDF1 mouse
Type: organism-based
MEASUREMENT_PARAMETERS: in vivo
Give the value, in units of mg/kg, as a plain number.

For this compound ( CO[C@H]1CC[C@H](NC(=O)N(CCCl)N=O)CC1 ), measured LD10 is 44

For reference, reported LD10 for CCOC(=O)[C@@H]1CCC[C@H](NC(=O)N(CCCl)N=O)C1 (relative stereo) stands at 50

Note to self: LD10 recorded for O=NN(CCF)C(=O)N[C@H]1CC[C@@H](C(=O)O)CC1 was 29

Recorded LD10 (compound C[C@H]1S(=O)(=O)C[C@H](NC(=O)N(CCCl)N=O)CS1(=O)=O ): 51

From: ChEMBL document CHEMBL3244324
